# ASSAY SYSTEM: Cytochrome P450 11B1, mitochondrial (Homo sapiens, UniProt P15538)
# Sequence (P15538 whole entry): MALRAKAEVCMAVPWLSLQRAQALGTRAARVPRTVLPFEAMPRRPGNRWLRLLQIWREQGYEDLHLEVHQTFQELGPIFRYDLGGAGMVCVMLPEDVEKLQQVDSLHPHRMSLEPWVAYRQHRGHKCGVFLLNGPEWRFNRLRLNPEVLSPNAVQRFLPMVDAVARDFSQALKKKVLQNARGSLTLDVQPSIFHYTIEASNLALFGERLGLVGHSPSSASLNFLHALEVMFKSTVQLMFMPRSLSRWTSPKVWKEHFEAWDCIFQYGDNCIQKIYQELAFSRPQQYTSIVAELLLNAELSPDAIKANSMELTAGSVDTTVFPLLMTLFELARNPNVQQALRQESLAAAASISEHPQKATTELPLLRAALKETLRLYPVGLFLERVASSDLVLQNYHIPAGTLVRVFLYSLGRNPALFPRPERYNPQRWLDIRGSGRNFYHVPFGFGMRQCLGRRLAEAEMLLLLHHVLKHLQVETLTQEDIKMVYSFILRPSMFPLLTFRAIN
# ASSAY PROCEDURE: Inhibition of human CYP11B1-8C7 expressed in chinese hamster V79 cells using 11-deoxycortisol as substrate preincubated for 1 hr followed by substrate addition measured for 3 hrs by HTRF assay
PROPERTY MEASURED: IC50 (nM)
Your answer is read as nM, so omit the unit and give the number.

Please review the following examples before continuing.
In one line, give reported IC50 of the entry `CC1(C)CN(c2cncc(N3CCC4(CC3)CNC(=O)C4)n2)C1` .
1740

Hello, please tell me recorded IC50 for this one: `c1ccc2c(N3CCC4(CCCO4)CC3)cncc2c1`
787

---
In one line, give reported IC50 of the entry `CN1CC2(CCN(c3cncc([C@@](C)(O)C(F)(F)F)c3)CC2)CC1=O` .
10000

Quick one: give measured IC50 for `CN1CC2(CCN(c3cncc(N4CC(C)(C)C4)n3)CC2)CC1=O`
4460

// fetch IC50 given entry `CN1CC2(CCN(c3cncc([C@](C)(O)C(F)(F)F)c3)CC2)CC1=O`
1540

Provide only the value of recorded IC50 for `CN1CC2(CCN(c3cncc4ccccc34)CC2)CC1=O`
2000

Name the recorded IC50 of the molecule listed here: `CC(=O)N1CCC2(CCN(c3cncc4ccccc34)CC2)C1`
1000

Give reported IC50 value for `C[C@](O)(c1cncc(N2CCC3(CCOC3)CC2)c1)C(F)(F)F`
355

State, in one line, measured IC50 of `c1ccc2c(N3CCC4(CC3)COC4)cncc2c1`
1590

Using known records, supply IC50 for `c1ccc2c(N3CCC4(CCCCC4)CC3)cncc2c1`
1570
